Target: T1, human TL1A extracellular domain with N-terminal HIS and FLAG tag (human, UniProt O95150 72-251)
T1 sequence: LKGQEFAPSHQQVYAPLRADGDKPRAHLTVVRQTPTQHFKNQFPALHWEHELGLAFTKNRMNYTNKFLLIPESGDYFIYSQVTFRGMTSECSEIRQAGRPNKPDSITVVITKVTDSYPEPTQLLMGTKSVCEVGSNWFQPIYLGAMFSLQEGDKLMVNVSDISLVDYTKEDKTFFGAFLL
Test: cell-based or functional assay
Readings of Antibody IC50, TL1A induced caspase potency assay in TF-1 cells for the listed binders
result.type: Antibody IC50, TL1A induced caspase potency assay in TF-1 cells (ng/mL)

{"columns": ["binder", "u", "val"],
 "data": [
  ["320-591 (antibody, human IgG1, V domains shown, full-length human IgG1, lambda) VH: QVQLVQSGAEVKKPGASVKVSCKASGYTFTSYDINWVRQAPGQGLEWMGWLNPNSGYTGYAQKFQGRVTMTADRSTSTAYMELSSLRSEDTAVYYCAREVPETAAFEYWGQGTLVTVSS VL: QSVLTQPPSVSGAPGQRVTISCTSSSSDIGAGLGVLWYQQLPGTAPKLLIEGYYNRPSGVPDRFSGSKSGTSASLTITGLLPEDEGDYYCQSYDGTLSALFGGGTKLTVLG", "ng/mL", 2],
  ["320-587 (antibody, name in Kabat numbering, V domains shown, full-length human IgG1, lambda) VH: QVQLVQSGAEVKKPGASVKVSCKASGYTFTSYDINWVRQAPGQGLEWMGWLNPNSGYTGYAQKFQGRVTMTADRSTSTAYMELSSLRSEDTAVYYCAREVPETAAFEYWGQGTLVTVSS VL: QSVLTQPPSVSGAPGQRVTISCTSSSSDIGAGLGVHWYQQLPGTAPKLLIEGYYNRPSGVPDRFSGSKSGTSASLTITGLLPEDEGDYYCQSWDGTLSALFGGGTKLTVLG", "ng/mL", 1],
  ["320-267 (antibody, human IgG1, V domains shown) VH: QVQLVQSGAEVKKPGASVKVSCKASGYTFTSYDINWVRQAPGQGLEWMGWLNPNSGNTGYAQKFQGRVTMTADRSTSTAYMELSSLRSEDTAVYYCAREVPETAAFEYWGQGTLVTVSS VL: QSVLTQPPSVSGAPGQRVTISCTSSSSDIGAALGVHWYQQLPGTAPKLLIEGYYNRPSGVPDRFSGSKSGTSASLTITGLLPEDEGDYYCQSYDGTLSALFGGGTKLTVLG", "ng/mL", 10],
  ["320-594 (antibody, human IgG1, name in Kabat numbering, V domains shown, full-length human IgG1, lambda) VH: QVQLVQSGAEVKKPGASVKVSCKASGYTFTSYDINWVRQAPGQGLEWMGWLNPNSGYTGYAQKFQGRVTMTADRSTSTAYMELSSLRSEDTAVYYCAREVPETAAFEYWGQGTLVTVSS VL: QSVLTQPPSVSGAPGQRVTISCTSSSSDIGAGQGVHWYQQLPGTAPKLLIEGYYNRPSGVPDRFSGSKSGTSASLTITGLLPEDEGDYYCQSWDGTLSALFGGGTKLTVLG", "ng/mL", 5],
  ["320-613 (antibody, human IgG1, name in Kabat numbering, V domains shown, full-length human IgG1, lambda) VH: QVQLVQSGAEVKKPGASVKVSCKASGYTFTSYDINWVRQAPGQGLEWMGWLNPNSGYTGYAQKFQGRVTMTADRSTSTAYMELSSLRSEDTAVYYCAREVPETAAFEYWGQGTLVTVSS VL: QSVLTQPPSVSGAPGQRVTISCTSSSSDIGAGLGVHWYQQLPGTAPKLLIEGYYNRPSGVPDRFSGSKSGTSASLTITGLLPEDEGDYYCQSWDYTLSALFGGGTKLTVLG", "ng/mL", 10],
  ["320-586 (antibody, human IgG1, name in Kabat numbering, V domains shown, full-length human IgG1, lambda) VH: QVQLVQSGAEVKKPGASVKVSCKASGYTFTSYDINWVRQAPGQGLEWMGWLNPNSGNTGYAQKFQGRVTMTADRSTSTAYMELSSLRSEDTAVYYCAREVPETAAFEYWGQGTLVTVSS VL: QSVLTQPPSVSGAPGQRVTISCTSSSSDIGAGLGVLWYQQLPGTAPKLLIEGYYNRPSGVPDRFSGSKSGTSASLTITGLLPEDEGDYYCQSWDGTLSALFGGGTKLTVLG", "ng/mL", 2]
]}
